meta.source: patent US20190307843A1

Assay: Pharmacokinetics of CD101 after single 30 mg/kg SC (vs IV) dose in monkeys
Assay type: in vivo
Conditions: both sexes, cynomolgus monkey, plasma, subcutaneous; SC 30 mg/kg vs IV at the same dose; 10-day period
Starred links: 1 amine or outer side, 2 acyl side, 3 side chain; linkers in the order of their positions; H or OH if unused. Positions of bridges follow the written chain, without caps; N, C: chain ends. Non-standard residues stand in square brackets, D forms with d. Residues, ends and D or L forms follow the SMILES beside them. *: point of attachment. Orn(4R-OH,5R-OCH2CH2NMe3+) = C[N+](C)(C)CCO[C@@H](N[*:3])[C@H](O)C[C@H](N[*:1])C(=O)[*:2]; pTerphenylCO(4''-OnC5H11) = CCCCCOc1ccc(-c2ccc(-c3ccc(C(=O)*)cc3)cc2)cc1; hTyr(3S-OH,4S-OH) = N[C@H](C(=O)O)[C@H](O)[C@@H](O)c1ccc(O)cc1; Pro(3S-OH,4S-Me) = C[C@H]1CN[C@H](C(=O)O)[C@H]1O; Hyp = O=C(O)[C@@H]1C[C@@H](O)CN1
test.readout: bioavailability

Request: Query: bioavailability; subject: CCCCCOc1ccc(-c2ccc(-c3ccc(C(=O)N[C@H]4C[C@@H](O)[C@@H](OCC[N+](C)(C)C)NC(=O)[C@@H]5[C@@H](O)[C@@H](C)CN5C(=O)[C@H]([C@@H](C)O)NC(=O)[C@H]([C@H](O)[C@@H](O)c5ccc(O)cc5)NC(=O)[C@@H]5C[C@@H](O)CN5C(=O)[C@H]([C@@H](C)O)NC4=O)cc3)cc2)cc1 [CD101] ({pTerphenylCO(4''-OnC5H11)}-[Orn(4R-OH,5R-OCH2CH2NMe3+)]T[Hyp][hTyr(3S-OH,4S-OH)]T[Pro(3S-OH,4S-Me)]; lactam 1-C)
Result: 80%

----------
Tested on: Candida auris strains
Assay: Candida auris antifungal susceptibility testing (CLSI M27-A3), 38 strains
Type: cell-based
Details: Candidozyma auris, 24 h, strain 14 VCPI 1130/P/13; 24 h; read-out: MIC
A collection of compounds and their measured MIC
Your answer should be a plain number; it is taken to be in µg/mL.

Request: Hi! What's the reported MIC for CC[C@H](C)C[C@H](C)CCCCCCCCC(=O)N[C@H]1C[C@@H](O)[C@@H](NCCN)NC(=O)[C@@H]2[C@@H](O)CCN2C(=O)[C@H]([C@H](O)CCN)NC(=O)[C@H]([C@H](O)[C@@H](O)c2ccc(O)cc2)NC(=O)[C@@H]2C[C@@H](O)CN2C(=O)[C@H]([C@@H](C)O)NC1=O [CAS, caspofungin] on Candida auris strains?
Result: 0.5

----------
Assay: In vivo tissue distribution in SD rats after 5 mg/kg IV
Settings: Sprague-Dawley, rat, tissues (all tissues studied), read-out: t1/2 in all tissues studied
Starred links: 1 amine or outer side, 2 acyl side, 3 side chain; linkers in the order of their positions; H or OH if unused. Positions of bridges follow the written chain, without caps; N, C: chain ends. Non-standard residues stand in square brackets, D forms with d. Residues, ends and D or L forms follow the SMILES beside them. *: point of attachment. Orn(4R-OH,5R-OCH2CH2NMe3+) = C[N+](C)(C)CCO[C@@H](N[*:3])[C@H](O)C[C@H](N[*:1])C(=O)[*:2]; pTerphenylCO(4''-OnC5H11) = CCCCCOc1ccc(-c2ccc(-c3ccc(C(=O)*)cc3)cc2)cc1; hTyr(3S-OH,4S-OH) = N[C@H](C(=O)O)[C@H](O)[C@@H](O)c1ccc(O)cc1; Pro(3S-OH,4S-Me) = C[C@H]1CN[C@H](C(=O)O)[C@H]1O; Hyp = O=C(O)[C@@H]1C[C@@H](O)CN1
test.readout: half-life

Request: Query: half-life; subject: CCCCCOc1ccc(-c2ccc(-c3ccc(C(=O)N[C@H]4C[C@@H](O)[C@@H](OCC[N+](C)(C)C)NC(=O)[C@@H]5[C@@H](O)[C@@H](C)CN5C(=O)[C@H]([C@@H](C)O)NC(=O)[C@H]([C@H](O)[C@@H](O)c5ccc(O)cc5)NC(=O)[C@@H]5C[C@@H](O)CN5C(=O)[C@H]([C@@H](C)O)NC4=O)cc3)cc2)cc1 [CD101] ({pTerphenylCO(4''-OnC5H11)}-[Orn(4R-OH,5R-OCH2CH2NMe3+)]T[Hyp][hTyr(3S-OH,4S-OH)]T[Pro(3S-OH,4S-Me)]; lactam 1-C)
Result: 40 to 77 h
